Molecular target: nhr-66 (T09A12.4) (Caenorhabditis elegans) (UniProt H2KYJ8)
Sequence: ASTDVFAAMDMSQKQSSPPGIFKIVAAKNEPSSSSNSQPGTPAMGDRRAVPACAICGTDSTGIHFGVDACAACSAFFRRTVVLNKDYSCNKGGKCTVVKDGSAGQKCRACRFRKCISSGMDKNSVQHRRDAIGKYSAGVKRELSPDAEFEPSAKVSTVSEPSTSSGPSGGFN
Metric: binding signal (PBM E-score (-0.5 to 0.5))

Sequence Chain	Assay Target	Data Value
ACTACACA (double strand) [8-mer ACTACACA]	nhr-66 (T09A12.4) (Caenorhabditis elegans) (UniProt H2KYJ8)	0.484
ACTACACG (double strand) [8-mer ACTACACG]	nhr-66 (T09A12.4) (Caenorhabditis elegans) (UniProt H2KYJ8)	0.481
GACTACAC (double strand) [8-mer GACTACAC]	nhr-66 (T09A12.4) (Caenorhabditis elegans) (UniProt H2KYJ8)	0.484
AATGTAGT (double strand) [8-mer AATGTAGT]	nhr-66 (T09A12.4) (Caenorhabditis elegans) (UniProt H2KYJ8)	0.48
GACTACAA (double strand) [8-mer GACTACAA]	nhr-66 (T09A12.4) (Caenorhabditis elegans) (UniProt H2KYJ8)	0.488
ACTACACT (double strand) [8-mer ACTACACT]	nhr-66 (T09A12.4) (Caenorhabditis elegans) (UniProt H2KYJ8)	0.487
CAACTACA (double strand) [8-mer CAACTACA]	nhr-66 (T09A12.4) (Caenorhabditis elegans) (UniProt H2KYJ8)	0.484
ACTACAAA (double strand) [8-mer ACTACAAA]	nhr-66 (T09A12.4) (Caenorhabditis elegans) (UniProt H2KYJ8)	0.492
AAACTACA (double strand) [8-mer AAACTACA]	nhr-66 (T09A12.4) (Caenorhabditis elegans) (UniProt H2KYJ8)	0.484
AGACTACA (double strand) [8-mer AGACTACA]	nhr-66 (T09A12.4) (Caenorhabditis elegans) (UniProt H2KYJ8)	0.487
AACTACAC (double strand) [8-mer AACTACAC]	nhr-66 (T09A12.4) (Caenorhabditis elegans) (UniProt H2KYJ8)	0.486

###

Molecular target: mnm-2 (C10A4.8) (Caenorhabditis elegans)
Sequence: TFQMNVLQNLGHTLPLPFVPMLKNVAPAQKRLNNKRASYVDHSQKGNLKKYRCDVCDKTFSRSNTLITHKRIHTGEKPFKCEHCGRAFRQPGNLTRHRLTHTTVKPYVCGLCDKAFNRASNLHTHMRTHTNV
Metric: binding signal (PBM E-score (-0.5 to 0.5))

Sequence Chain	Data Value
GCCGTTCC (double strand) [8-mer GCCGTTCC]	0.469
GAAGTGCA (double strand) [8-mer GAAGTGCA]	0.459
AGCGCATC (double strand) [8-mer AGCGCATC]	0.459
GATGCGCC (double strand) [8-mer GATGCGCC]	0.464
GATGTGCA (double strand) [8-mer GATGTGCA]	0.457
GCGTATCC (double strand) [8-mer GCGTATCC]	0.454

###

Biological target: B0310.2 (B0310.2) (Caenorhabditis elegans)
Sequence: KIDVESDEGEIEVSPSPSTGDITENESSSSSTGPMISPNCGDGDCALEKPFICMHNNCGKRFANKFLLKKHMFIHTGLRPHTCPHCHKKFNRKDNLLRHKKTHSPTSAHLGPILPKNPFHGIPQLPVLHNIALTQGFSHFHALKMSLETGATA
Metric: binding signal (PBM E-score (-0.5 to 0.5))

Sequence Chain	Data Value
ATGAGGTA (double strand) [8-mer ATGAGGTA]	0.484
CTACCTCA (double strand) [8-mer CTACCTCA]	0.484
TGAGGTAA (double strand) [8-mer TGAGGTAA]	0.49
ATGAGGGA (double strand) [8-mer ATGAGGGA]	0.478
ACCTCAAT (double strand) [8-mer ACCTCAAT]	0.49
ATACCTCA (double strand) [8-mer ATACCTCA]	0.485
CCTCAATC (double strand) [8-mer CCTCAATC]	0.477
ACCTCAAA (double strand) [8-mer ACCTCAAA]	0.481
ACCTCACT (double strand) [8-mer ACCTCACT]	0.478
TACCTCAA (double strand) [8-mer TACCTCAA]	0.495
AACCTCAA (double strand) [8-mer AACCTCAA]	0.483

Source listed as paper PMC4434323.
